Origin of measurements: patent US8673848

# measured_on: T1, human APJ receptor (hAPJ) (human, UniProt P35414 1-380)
# T1 sequence (looked up): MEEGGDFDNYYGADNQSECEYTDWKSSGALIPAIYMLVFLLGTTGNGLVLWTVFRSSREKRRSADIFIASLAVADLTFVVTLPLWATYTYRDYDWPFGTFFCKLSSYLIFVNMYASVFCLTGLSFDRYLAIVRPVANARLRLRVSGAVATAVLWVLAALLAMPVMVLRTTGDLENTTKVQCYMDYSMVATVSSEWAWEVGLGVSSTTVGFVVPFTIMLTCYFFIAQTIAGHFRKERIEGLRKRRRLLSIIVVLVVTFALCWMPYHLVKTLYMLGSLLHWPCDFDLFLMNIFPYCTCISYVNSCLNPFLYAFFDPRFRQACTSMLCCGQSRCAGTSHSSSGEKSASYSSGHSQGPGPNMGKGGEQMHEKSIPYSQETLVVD
# assay_details: cell-based or functional assay
*1 amine or outer side, *2 acyl side, *3 side chain or, on linkers, in order; H or OH if unused. Bridges are numbered along the chain shown (N, C = ends). [ ]: non-standard residue; d: D form. The star is where a group is joined. ‑S‑CH2‑C(:Z)‑CH2‑S‑ = thioether linker between two Cys sulfurs, S-CH2-C(=Z)-CH2-S, where Z is an oxime formed with (S)-1-(aminooxy)-19-carboxy-2,7,16,21-tetraoxo-9,12-dioxa-3,6,15,20-tetraazaoctatriacontan-38-oic acid (a fatty acid derivative, O=C(O)CCCCCCCCCCCCCCCCC(=O)N[C@@H](CCC(=O)NCCOCCOCC(=O)NCCNC(=O)CON=C(C[*:1])C[*:2])C(=O)O; Palmitoyl = CCCCCCCCCCCCCCCC(=O)*; pGlu = O=C1CC[C@@H](C(=O)O)N1; Lauroyl = CCCCCCCCCCCC(=O)*; Nle = CCCC[C@H](N)C(=O)O; Orn = NCCC[C@H](N)C(=O)O; AEEA = NCCOCCOCC(=O)O; Aib = CC(C)(N)C(=O)O
Parameter class (string): assigned from measured hAPJ Ca2+ Flux EC50. Ranges: Low (below 3 nM), Mid (3 nM to below 40 nM), High (40 nM or more)

Completed entries (count: 8):
binder="[pGlu]RPRLCHKGP[Nle]C-NH2 (disulfide 6-12; SMILES CCCC[C@@H]1NC(=O)[C@@H]2CCCN2C(=O)CNC(=O)[C@H](CCCCN)NC(=O)[C@H](Cc2c[nH]cn2)NC(=O)[C@@H](NC(=O)[C@H](CC(C)C)NC(=O)[C@H](CCCNC(=N)N)NC(=O)[C@@H]2CCCN2C(=O)[C@H](CCCNC(=N)N)NC(=O)[C@@H]2CCC(=O)N2)CSSC[C@@H](C(N)=O)NC1=O) [Example 63: pE-R-P-R-L-C-H-K-G-P-Nle-C-NH2]" group=Mid
binder="Lauroyl-[AEEA]QRPRLCHKGP[Nle]CF-OH (disulfide 7-13; SMILES CCCCCCCCCCCC(=O)NCCOCCOCC(=O)N[C@@H](CCC(N)=O)C(=O)N[C@@H](CCCNC(=N)N)C(=O)N1CCC[C@H]1C(=O)N[C@@H](CCCNC(=N)N)C(=O)N[C@@H](CC(C)C)C(=O)N[C@H]1CSSC[C@@H](C(=O)N[C@@H](Cc2ccccc2)C(=O)O)NC(=O)[C@H](CCCC)NC(=O)[C@@H]2CCCN2C(=O)CNC(=O)[C@H](CCCCN)NC(=O)[C@H](Cc2c[nH]cn2)NC1=O) [Example 25: Lauroyl-O2Oc-Q-R-P-R-L-C-H-K-G-P-Nle-C-F-OH]" group=Mid
binder="[pGlu]RPRLCHKGP[Nle]CK(Palmitoyl)-OH (disulfide 6-12; SMILES CCCCCCCCCCCCCCCC(=O)NCCCC[C@H](NC(=O)[C@@H]1CSSC[C@H](NC(=O)[C@H](CC(C)C)NC(=O)[C@H](CCCNC(=N)N)NC(=O)[C@@H]2CCCN2C(=O)[C@H](CCCNC(=N)N)NC(=O)[C@@H]2CCC(=O)N2)C(=O)N[C@@H](Cc2c[nH]cn2)C(=O)N[C@@H](CCCCN)C(=O)NCC(=O)N2CCC[C@H]2C(=O)N[C@@H](CCCC)C(=O)N1)C(=O)O) [Example 22: pE-R-P-R-L-C-H-K-G-P-Nle-C-K(Palmitoyl)-OH]" group=High
binder="[pGlu]RPRLCK(Lauroyl)KGP[Nle]CF-OH (disulfide 6-12; SMILES CCCCCCCCCCCC(=O)NCCCC[C@@H]1NC(=O)[C@@H](NC(=O)[C@H](CC(C)C)NC(=O)[C@H](CCCNC(=N)N)NC(=O)[C@@H]2CCCN2C(=O)[C@H](CCCNC(=N)N)NC(=O)[C@@H]2CCC(=O)N2)CSSC[C@@H](C(=O)N[C@@H](Cc2ccccc2)C(=O)O)NC(=O)[C@H](CCCC)NC(=O)[C@@H]2CCCN2C(=O)CNC(=O)[C@H](CCCCN)NC1=O) [Example 27: pE-R-P-R-L-C-K(Lauroyl)-K-G-P-Nle-C-F-OH]" group=High
binder="[pGlu]RPRLCHKGP[Nle]CF-OH (linker 6-12 via ‑S‑CH2‑C(:Z)‑CH2‑S‑; also: Z = oxime with (S)-1-(aminooxy)-19-carboxy-2,7,16,21-tetraoxo-9,12-dioxa-3,6,15,20-tetraazaoctatriacontan-38-oic acid on the linker ketone)" group=High
binder="[pGlu]RPRL[Orn]HFGP[Nle]D-Phenethylamine (lactam 6-12) [Example 3: pE-R-P-R-L-Orn-H-F-G-P-Nle-D-Phenethylamine]" group=High
binder="[pGlu]RKRLCHKGP[Nle]CF-OH (disulfide 6-12; SMILES CCCC[C@@H]1NC(=O)[C@@H]2CCCN2C(=O)CNC(=O)[C@H](CCCCN)NC(=O)[C@H](Cc2c[nH]cn2)NC(=O)[C@@H](NC(=O)[C@H](CC(C)C)NC(=O)[C@H](CCCNC(=N)N)NC(=O)[C@H](CCCCN)NC(=O)[C@H](CCCNC(=N)N)NC(=O)[C@@H]2CCC(=O)N2)CSSC[C@@H](C(=O)N[C@@H](Cc2ccccc2)C(=O)O)NC1=O) [Example 34: pE-R-K-R-L-C-H-K-G-P-Nle-C-F-OH]" group=Mid
binder="[pGlu]RPRLC[Aib]KGP[Nle]C[dF]-OH (disulfide 6-12; SMILES CCCC[C@@H]1NC(=O)[C@@H]2CCCN2C(=O)CNC(=O)[C@H](CCCCN)NC(=O)C(C)(C)NC(=O)[C@@H](NC(=O)[C@H](CC(C)C)NC(=O)[C@H](CCCNC(=N)N)NC(=O)[C@@H]2CCCN2C(=O)[C@H](CCCNC(=N)N)NC(=O)[C@@H]2CCC(=O)N2)CSSC[C@@H](C(=O)N[C@H](Cc2ccccc2)C(=O)O)NC1=O) [Example 10: pE-R-P-R-L-C-Aib-K-G-P-Nle-C-f-OH]" group=Low

Which hAPJ Ca2+ Flux EC50 category applies to [pGlu]RPRLCHKG[Pipecolic acid][Nle]CF-OH (disulfide 6-12) [Example 46: pE-R-P-R-L-C-H-K-G-(Pipecolic acid)-Nle-C-F-OH] here?
Mid

Which hAPJ Ca2+ Flux EC50 category applies to [pGlu]RPRLCHKGP[Nle][dC]F-OH (disulfide 6-12; SMILES CCCC[C@@H]1NC(=O)[C@@H]2CCCN2C(=O)CNC(=O)[C@H](CCCCN)NC(=O)[C@H](Cc2c[nH]cn2)NC(=O)[C@@H](NC(=O)[C@H](CC(C)C)NC(=O)[C@H](CCCNC(=N)N)NC(=O)[C@@H]2CCCN2C(=O)[C@H](CCCNC(=N)N)NC(=O)[C@@H]2CCC(=O)N2)CSSC[C@H](C(=O)N[C@@H](Cc2ccccc2)C(=O)O)NC1=O) [Example 56: pE-R-P-R-L-C-H-K-G-P-Nle-c-F-OH] here?
Low
